The measured values listed here are drawn from patent US20230295140A1.

- Assay target: rhVAP-1 (Homo sapiens (Human), UniProt Q16853)
- Sequence (Q16853 whole entry): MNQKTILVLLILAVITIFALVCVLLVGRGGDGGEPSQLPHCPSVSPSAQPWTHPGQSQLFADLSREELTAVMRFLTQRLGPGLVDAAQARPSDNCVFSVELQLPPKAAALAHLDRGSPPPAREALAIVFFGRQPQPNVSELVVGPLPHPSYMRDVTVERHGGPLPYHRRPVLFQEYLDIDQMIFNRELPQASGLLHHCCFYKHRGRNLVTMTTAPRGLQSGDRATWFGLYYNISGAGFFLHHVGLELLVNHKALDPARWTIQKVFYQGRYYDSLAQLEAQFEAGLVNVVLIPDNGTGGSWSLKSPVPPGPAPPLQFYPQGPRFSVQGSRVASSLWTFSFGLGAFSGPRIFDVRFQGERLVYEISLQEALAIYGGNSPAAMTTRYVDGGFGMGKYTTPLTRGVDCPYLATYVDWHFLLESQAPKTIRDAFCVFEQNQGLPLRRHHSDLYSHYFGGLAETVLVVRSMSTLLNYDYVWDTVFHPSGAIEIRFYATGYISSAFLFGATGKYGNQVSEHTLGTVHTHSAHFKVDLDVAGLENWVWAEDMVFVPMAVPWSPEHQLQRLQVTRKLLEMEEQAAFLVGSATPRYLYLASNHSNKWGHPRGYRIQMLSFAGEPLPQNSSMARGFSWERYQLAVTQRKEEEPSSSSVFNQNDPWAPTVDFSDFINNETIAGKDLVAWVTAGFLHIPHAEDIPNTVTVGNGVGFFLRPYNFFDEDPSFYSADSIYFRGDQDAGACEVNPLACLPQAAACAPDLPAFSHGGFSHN
- Procedure text: VAP-1 fluorometric assay (Amplex Red/HRP, benzylamine substrate)
- Format: biochemical
- Cond: class symbols, ranges defined in μM
Where a name gives a salt, the structure may show the parent alone.
Readout: IC50

Example cases with answers are listed next.
>  <Compound>
CCCNc1nc2ccc(OC/C(=C/F)CN)c(F)c2o1 [Example 6]

>  <IC50>
< 0.1 µM

$$$$
>  <Compound>
CC1CN(c2nc3ccc(OC/C(=C/F)CN)cc3o2)C(C)(C)C1 (stereo not drawn) [Example 86, 4-methylbenzenesulfonate]

>  <IC50>
< 0.1 µM

$$$$
>  <Compound>
CCCCc1nc2ccc(OC/C(=C/F)CN)cc2[nH]1 [Example 13, 4-methylbenzenesulfonate]

>  <IC50>
< 0.1 µM

$$$$
>  <Compound>
NC/C(=C\F)COc1ccc2nc(C34CC5CC(CC(C5)C3)C4)oc2c1 [Example 54]

>  <IC50>
< 0.1 µM

$$$$
>  <Compound>
NC/C(=C/F)COc1ccc2nc(NCCC(Cl)CCO)oc2c1 (stereo not drawn) [Example 93]

>  <IC50>
< 0.1 µM

$$$$

(Q) Provide only the value of recorded IC50 for C=C(CN)C(F)(F)Oc1ccc2nc(CCCC)oc2c1 [Example 29, hydrochloride]
(A) 0.1 to 1 µM

(Q) Provide only the value of recorded IC50 for COCCCNc1nc2ccc(OC/C(=C\F)CN)cc2o1 [Example 81, 4-methylbenzenesulfonate]
(A) < 0.1 µM

(Q) Complete the entry with IC50 for CCCCc1nc2ccc(OC/C(=C\F)CN)cc2o1 [Example 19, 4-methylbenzenesulfonate]
(A) < 0.1 µM

(Q) Please give the documented IC50 of C=C(CN)c1ccc2nc(CCCC)oc2c1 [Example 92]
(A) 0.1 to 1 µM

(Q) Tell me IC50 reported for CCCCc1nc2ccc(OC/C(F)=C\CN)cc2o1 [Example 16]
(A) 0.1 to 1 µM

(Q) // fetch IC50 given entry NC/C(=C\F)COc1ccc2nc(NCc3ccccc3)oc2c1 [Example 21, 4-methylbenzenesulfonate]
(A) < 0.1 µM

(Q) Answer with the recorded IC50 for the compound listed here: CCCCc1nc2ccc(NC/C(=C\F)CN)cc2o1 [Example 44, 4-methylbenzenesulfonate]
(A) < 0.1 µM

(Q) For the compound NC/C(=C/F)COc1ccc2nc(NCc3ccncc3)oc2c1 [Example 94, 4-methylbenzenesulfonate] , give its measured IC50 value.
(A) < 0.1 µM
